- Test system: CAKI-1
- assay name: NCI tumour cell line growth inhibition, 48 h
Calls of active or inactive are those of the source. No stated cut-off is given here; in the data, active = GI50 up to about 1.1 µM and inactive = higher.
# GI50 per entry

A selection of reference data follows.
| compound | GI50 |
| --- | --- |
| CC(=O)/C(=C/NC(=S)c1cccnc1)C(=O)Nc1ccccc1C | 41.3 µM (inactive) |
| CCOC(=O)C(Cc1c(-c2[nH]c3ccccc3c2CC(NC(=O)CNC(C)=O)C(=O)OCC)[nH]c2ccccc12)NC(=O)CNC(C)=O (stereo not given) | > 100 µM (inactive) |
| CC(=O)OCc1cc(=O)n2c([nH]c3ccccc32)c1C#N | 28.2 µM (inactive) |
| COC(=O)C(=O)C(C(=O)C(=O)Nc1ccccc1C(=O)OC)c1nc2ccc(C(=O)c3ccccc3)cc2nc1O (stereo not given) | 30.5 µM (inactive) |

Now for a further compound.
In: Quick one: GI50 of "O=[S@@]1Nc2ccc(Br)cc2S1" ?
Out: 1.15 µM (inactive)

Data credit: ChEMBL document CHEMBL1201862
